System: NRASmutSK-Mel-2 cell growth
TEST_NAME: NRASmut SK-Mel-2 melanoma cell growth inhibition / cell death in vitro
Format: cell-based
TEST_CONTEXT: Homo sapiens, FIG. 1
REPORTED_METRIC: pIC50
Units for pIC50: none; it is -log10 of a concentration expressed in mol/L.

Value of pIC50 reported for the compound CCCCCCCC(=O)SCC/C=C/[C@@H]1CC(=O)NCc2nc(cs2)C(=O)NC(C)(C)C(=O)N[C@@H](C(C)C)C(=O)O1 is 6.91
